- Tested on: GABAA receptors
- ASSAY_TEXT: Electrophysiology assay (two-electrode voltage clamp, Xenopus oocytes expressing GABAA receptors)
- Type: cell-based
- EXPERIMENTAL_CONDITIONS: positive (Pos) or negative (Neg) modulation of current at GABA EC20, screening concentration of 10 μM
REPORTED_ENDPOINT: EP Result

Consider the reported EP Result for these molecules:
molecule="O=c1c2c[nH]c3cc(F)c(N4CCOCC4)cc3c-2nn1-c1ccccc1 [19a]" obs_value=Pos
molecule="CC1CN(c2cc3[nH]cc4c(=O)n(-c5ccccc5)nc-4c3cc2F)CC(C)O1 (stereo not shown) [28g]" obs_value=Pos
molecule="COc1ccc(-n2nc3c4ccc(N5CCNCC5)cc4[nH]cc-3c2=O)cc1 [14e]" obs_value=Neg
molecule="O=c1c2c[nH]c3cc(N4CCOCC4)c(F)cc3c-2nn1-c1ccccn1 [28d]" obs_value=Neg
molecule=COc1ccc(-n2nc3c4cc(N5CCN(C)CC5)ccc4[nH]cc-3c2=O)cc1 obs_value=Pos

Returns the measured EP Result for the input molecule. Input: CC(C)N1CCN(c2ccc3[nH]cc4c(=O)n(-c5ccccc5)nc-4c3c2)CC1 [19b] Pos

I would be grateful if you could share the reported EP Result for COc1ccc(-n2nc3c4cc(F)c(N5CCN(C)CC5)c(F)c4[nH]cc-3c2=O)cc1 [44d] . Pos

// provenance: patent US8598159B2
